The reader will find reported solubility in Solution 2 values listed item by item below.
- protocolDetails: solubility according to the General Rules of the Japanese Pharmacopoeia 14th Edition
- Format: physicochemical
- testParameters: Solution 2 of the Japanese Pharmacopoeia; 20±5° C. within 30 minutes; sulfate
Structures can show the parent of a compound that is named as a salt.
Your answer should be a plain number; it is taken to be in µg/mL.

{"columns": ["molecule", "measurementUnits", "experimentalResult"],
 "data": [
  ["Cc1cccc2scc(Cn3c(SCCCC(=O)O)nc4ccccc43)c12 [Crystal-SA, sulfate]", "µg/mL", 67.3],
  ["Cc1cccc2scc(Cn3c(SCCCC(=O)O)nc4ccccc43)c12 [Crystal-SB, sulfate]", "µg/mL", 24.2],
  ["Cc1cccc2scc(Cn3c(SCCCC(=O)O)nc4ccccc43)c12 [Crystal-SC, sulfate]", "µg/mL", 72.4]
]}

Quick one: solubility in Solution 2 for Cc1cccc2scc(Cn3c(SCCCC(=O)O)nc4ccccc43)c12 [Crystal-SF, sulfate] ?
74.0

Recorded values, source patent US20080015240A1.
